Data provenance is ChEMBL document CHEMBL3414508.

EC50 overview
Assay: Antiviral activity against Influenza A virus (A/Hong Kong/7/1987(H3N2)) infected in MDCK cells assessed as reduction of virus-induced cytopathic effect after 72 hrs by microscopic analysis
Assay type: functional, cell-based

Study these solved cases before continuing.
molecular-string	readout-type	experimental-result
O=C1N[C@H]2C(=O)N[C@H]3C(=O)N[C@H](C(=O)N[C@H](C(=O)O)c4cc(O)cc(O)c4-c4cc3ccc4O)[C@H](O)c3ccc(c(Cl)c3)Oc3cc2cc(c3O)Oc2ccc(cc2Cl)C[C@H]2NC(=O)[C@H](Nc3c(NCc4ccc(-c5ccccc5)cc4)c(=O)c3=O)c3ccc(O)c(c3)Oc3cc(O)cc(c3)[C@@H]1NC2=O	EC50	> 100 µM
CC(=O)N[C@H]1[C@H](O[C@@H]2c3ccc(c(Cl)c3)Oc3cc4cc(c3O)Oc3ccc(cc3Cl)C[C@H]3NC(=O)[C@H](N)c5ccc(O)c(c5)Oc5cc(O)cc(c5)[C@H](NC3=O)C(=O)N[C@H]4C(=O)N[C@H]3C(=O)N[C@@H]2C(=O)N[C@H](C(=O)O)c2cc(O)cc(O)c2-c2cc3ccc2O)O[C@H](CO)[C@@H](O)[C@@H]1O	EC50	17 µM
COC(=O)[C@H]1NC(=O)[C@H]2NC(=O)[C@H](NC(=O)[C@@H]3NC(=O)[C@H]4NC(=O)[C@H](NC(=O)[C@H](Nc5c(NCc6ccc(-c7ccccc7)cc6)c(=O)c5=O)c5ccc(O)c(c5)Oc5cc4cc(O)c5C)[C@H](O)c4ccc(cc4)Oc4cc3cc(c4O)Oc3ccc(cc3)[C@H]2O)c2ccc(O)c(c2)-c2c(O)cc(O)cc21	EC50	0.15 µM
CC(=O)N[C@H]1[C@H](O[C@@H]2c3ccc(c(Cl)c3)Oc3cc4cc(c3O)Oc3ccc(cc3Cl)C[C@H]3NC(=O)[C@H](Nc5c(NCc6ccc(-c7ccccc7)cc6)c(=O)c5=O)c5ccc(O)c(c5)Oc5cc(O)cc(c5)[C@H](NC3=O)C(=O)N[C@H]4C(=O)N[C@H]3C(=O)N[C@@H]2C(=O)N[C@H](C(=O)O)c2cc(O)cc(O)c2-c2cc3ccc2O)O[C@H](CO)[C@@H](O)[C@@H]1O	EC50	> 100 µM
COC(=O)[C@H]1NC(=O)[C@H]2NC(=O)[C@H](NC(=O)[C@@H]3NC(=O)[C@H]4NC(=O)[C@@H](Cc5ccc(c(Cl)c5)Oc5cc3cc(c5O)Oc3ccc(cc3Cl)[C@H]2O[C@@H]2O[C@H](CO)[C@@H](O)[C@H](O)[C@H]2NC(C)=O)NC(=O)[C@H](Nc2c(OC)c(=O)c2=O)c2ccc(O)c(c2)Oc2cc(O)cc4c2)c2ccc(O)c(c2)-c2c(O)cc(O)cc21	EC50	> 100 µM

From here, focus on the item given below.
[ask] Data request, read-out EC50, for "N[C@H]1C(=O)N[C@@H]2Cc3ccc(c(Cl)c3)Oc3cc4cc(c3O)Oc3ccc(cc3Cl)[C@@H](O)[C@@H]3NC(=O)[C@H](NC(=O)[C@@H]4NC(=O)[C@@H](NC2=O)c2cc(O)cc(c2)Oc2cc1ccc2O)c1ccc(O)c(c1)-c1c(O)cc(O)cc1[C@@H](C(=O)O)NC3=O"
[reply] > 100 µM
